Origin of the recorded values: paper PMC11882969

target: hCB1 (Homo sapiens); experiment: bioSensAll ebBRET signaling profiling, hCB1; assay type: cell-based; parameters: host or cells: HEK293SL cells, transient PEI transfection; settings: Gi1 biosensor; Log [Compound] (M) -5.47381
Measured attribute: Gi1 hCB1 response

Short answer on hCB1 (Homo sapiens) for Cc1cc(C(=O)N2CC3(CCC3)[C@H]2[C@@H]2CCCO2)nn1-c1cccc(C(F)(F)F)c1 , Gi1 hCB1 response: 67.3119

For the 3 molecules below, give their Gi1 hCB1 response values.
1. COC(=O)C(NC(=O)c1cc(C)n(-c2cccc(F)c2)n1)c1cccs1 (stereo not shown)
2. Cc1cc(C(=O)N2CC3(CCC3)[C@@H]2[C@H]2CCCO2)nn1-c1cccc(C(F)(F)F)c1 (single isomer, unassigned)
3. Cc1cc(C(=O)N(C)C(c2ccco2)c2ccco2)nn1-c1cccc(C(F)(F)F)c1

[77.764, -11.1127, 10.5525]

* * *

biological target: hCB1 (Homo sapiens, UniProt P21554); assay: bioSensAll ebBRET signaling profiling, hCB1; type: cell-based; set-up: host or cells: HEK293SL cells, transient PEI transfection; conditions: Barr2+GRK2 biosensor; Log [Compound] (M) -7.55284
Sequence (P21554 whole entry): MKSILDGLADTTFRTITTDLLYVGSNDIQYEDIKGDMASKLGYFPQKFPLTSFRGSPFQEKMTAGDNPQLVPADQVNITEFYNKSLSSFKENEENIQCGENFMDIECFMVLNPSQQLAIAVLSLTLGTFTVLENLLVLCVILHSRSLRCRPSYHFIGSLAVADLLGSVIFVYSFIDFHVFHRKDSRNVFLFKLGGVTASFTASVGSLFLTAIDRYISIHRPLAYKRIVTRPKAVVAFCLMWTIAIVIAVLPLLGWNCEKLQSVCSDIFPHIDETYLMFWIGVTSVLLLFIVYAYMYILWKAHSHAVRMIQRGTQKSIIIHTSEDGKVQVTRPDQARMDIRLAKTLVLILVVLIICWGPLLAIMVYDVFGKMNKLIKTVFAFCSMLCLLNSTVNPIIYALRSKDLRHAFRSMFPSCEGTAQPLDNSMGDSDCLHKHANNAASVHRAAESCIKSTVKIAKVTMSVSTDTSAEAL
Please assign f whenever Barr2+GRK2 hCB1 response is at or above -50, and t whenever it is below.

Please determine if Cc1c(C(=O)OCC2CSc3ccccc3O2)cnn1Cc1ccccc1 (stereo not drawn) is below -50 in terms of Barr2+GRK2 hCB1 response. t

Please determine if Cc1nc(CC2CC2)oc1-c1nc(Cc2cc3c(cc2Br)OCO3)no1 is below -50 in terms of Barr2+GRK2 hCB1 response. f

Please determine if Cn1nc(-c2nnc(C(C)(C)Oc3ccc(Cl)cc3)o2)c2ccccc2c1=O is below -50 in terms of Barr2+GRK2 hCB1 response. t

Next:
Please determine if Cc1nn(Cc2ccc(Cl)cc2)c(C)c1C(=O)OCC1CSc2ccccc2O1 (stereo not drawn) is below -50 in terms of Barr2+GRK2 hCB1 response. f

Please determine if Cn1nc(-c2nnc(C(C)(C)Oc3ccc(C(F)(F)F)cc3)o2)c2ccccc2c1=O is below -50 in terms of Barr2+GRK2 hCB1 response. f

* * *

Assign GoB hCB1 to each entry below.
target: hCB1 (Homo sapiens, UniProt P21554); experiment: bioSensAll ebBRET signaling profiling, hCB1; format: cell-based; parameters: host or cells: HEK293SL cells, transient PEI transfection; conditions: Log [Compound] (M) -5.05788; single replicate values, FigS6a

Some solved cases for reference:
Short answer on hCB1 (Homo sapiens, UniProt P21554) for Cc1nc(CC2CC2)oc1-c1nc(Cc2cc3c(cc2Br)OCO3)no1 , GoB hCB1: -11.5515

Short answer on hCB1 (Homo sapiens, UniProt P21554) for Cc1cc(C(=O)NC(c2ccccc2)c2ccco2)nn1-c1cccc(C(F)(F)F)c1 (centres unmarked) , GoB hCB1: 38.1682

Short answer on hCB1 (Homo sapiens, UniProt P21554) for Cc1cc(C(=O)NC(c2ccco2)c2ccco2)nn1-c1cccc(C(F)(F)F)c1 , GoB hCB1: 84.6911

Short answer on hCB1 (Homo sapiens, UniProt P21554) for Cn1nc(-c2nnc(C(C)(C)Oc3ccc(Cl)cc3)o2)c2ccccc2c1=O , GoB hCB1: 19.1089

Short answer on hCB1 (Homo sapiens, UniProt P21554) for Cc1cc(C(=O)N2CC3(CCC3)[C@@H]2[C@H]2CCCO2)nn1-c1cccc(C(F)(F)F)c1 (single isomer, unassigned) , GoB hCB1: -0.4061

For the 3 compounds below, give their GoB hCB1 values.
1. Brc1cc2c(cc1Cc1noc(-c3cnn(CC4CC4)c3)n1)OCO2
2. COC(=O)[C@@H]1[C@@H]2CCC[C@@H]2CN1C(=O)c1cc(C)n(-c2cccc(Cl)c2)n1 (racemic)
3. Cc1cc(C(=O)N(C)C(c2ccco2)c2ccco2)nn1-c1cccc(C(F)(F)F)c1

[-12.8536, 63.4708, -26.2122]

* * *

test: in vitro; details: mouse, plasma
Assign remaining at 2 h, 1 µM to each entry below.
Answers are plain numbers, in %.

The reported remaining at 2 h, 1 µM of the compound COC(=O)[C@@](C)(NC(=O)c1cc(C)n(-c2cccc(C(F)(F)F)c2)n1)c1cccs1 [‘1350] was 14

Attention now turns to another entry.
The reported remaining at 2 h, 1 µM of the compound CC(C)[N+](C)(CCOC(=O)C1c2ccccc2Oc2ccccc21)C(C)C [Propantheline, reference compound] was 6

* * *

molecular target: UniProt:P21554; test: bioSensAll ebBRET signaling profiling, hCB1; type: cell-based; design: host or cells: HEK293SL cells, transient PEI transfection; settings: Log [Compound] (M) -4.63927; single replicate values, FigS6a
Measured attribute: GoB hCB1

Some solved cases for reference:
Short answer on UniProt:P21554 for COC(=O)C(NC(=O)c1cc(C)n(-c2cccc(F)c2)n1)c1cccs1 (centres unmarked) [‘51486] , GoB hCB1: 69.0456

Short answer on UniProt:P21554 for Brc1cc2c(cc1Cc1noc(-c3cnn(CC4CC4)c3)n1)OCO2 [‘5424] , GoB hCB1: -18.7739

Short answer on UniProt:P21554 for COC(=O)[C@@H]1[C@@H]2CCC[C@@H]2CN1C(=O)c1cc(C)n(-c2cccc(C(F)(F)F)c2)n1 [‘6439] , GoB hCB1: 101.488

Short answer on UniProt:P21554 for Cc1cc(C(=O)NC(c2ccco2)c2ccco2)nn1-c1cccc(C(F)(F)F)c1 [‘1090] , GoB hCB1: 98.7901

Attention now turns to another entry.
Short answer on UniProt:P21554 for Cc1nc(CC2CC2)oc1-c1nc(Cc2cc3c(cc2Br)OCO3)no1 [‘7019] , GoB hCB1: -13.6002

* * *

Assign Barr2+GRK2 hCB1 response to each entry below.
biological target: UniProt P21554; test: bioSensAll ebBRET signaling profiling, hCB1; type: cell-based; parameters: host or cells: HEK293SL cells, transient PEI transfection; details: Barr2+GRK2 biosensor; Log [Compound] (M) -4.63927
Numbers only.

The reported Barr2+GRK2 hCB1 response of the compound Cn1nc(-c2nnc(C(C)(C)Oc3ccc(C(F)(F)F)cc3)o2)c2ccccc2c1=O was 1.898

The reported Barr2+GRK2 hCB1 response of the compound Cn1nc(-c2nnc(C(C)(C)Oc3ccc(Cl)cc3)o2)c2ccccc2c1=O was -24.5851

The reported Barr2+GRK2 hCB1 response of the compound Cc1c(C(=O)OCC2CSc3ccccc3O2)cnn1Cc1ccccc1 (stereo not drawn) was -20.118

The reported Barr2+GRK2 hCB1 response of the compound Cc1nc(CC2CC2)oc1-c1nc(Cc2cc3c(cc2Br)OCO3)no1 was 5.727

The reported Barr2+GRK2 hCB1 response of the compound Cc1nn(Cc2ccc(Cl)cc2)c(C)c1C(=O)OCC1CSc2ccccc2O1 (stereo not drawn) was -40.2196

Attention now turns to another entry.
The reported Barr2+GRK2 hCB1 response of the compound Brc1cc2c(cc1Cc1noc(-c3cnn(CC4CC4)c3)n1)OCO2 was -34.7954

* * *

target: hCB1 (Homo sapiens, UniProt P21554); assay: bioSensAll ebBRET signaling profiling, hCB1; type: cell-based; parameters: host or cells: HEK293SL cells, transient PEI transfection; settings: Gi1 biosensor; Log [Compound] (M) -5.47381
Quick rule for you: Gi1 hCB1 response at 80 or higher means YES, lower means NO.

For orientation, consider the following solved cases.
Has COC(=O)C(NC(=O)c1cc(C)n(-c2cccc(C(F)(F)F)c2)n1)c1cccs1 (centres unmarked) a recorded Gi1 hCB1 response greater than or equal to 80? YES

Has Cc1cc(C(=O)N2CC3(CCC3)[C@H]2[C@H]2CCCO2)nn1-c1cccc(C(F)(F)F)c1 a recorded Gi1 hCB1 response greater than or equal to 80? NO

Has COC(=O)[C@@H]1[C@@H]2CCC[C@@H]2CN1C(=O)c1cc(C)n(-c2cccc(C(F)(F)F)c2)n1 a recorded Gi1 hCB1 response greater than or equal to 80? YES

Kindly consider the entry below.
Has COc1cccc(C(NC(=O)c2cc(C)n(-c3cccc(C(F)(F)F)c3)n2)c2ccco2)c1 (centres unmarked) a recorded Gi1 hCB1 response greater than or equal to 80? NO

* * *

biological target: hCB1 (Homo sapiens, UniProt P21554); test: Cerep HTRF cAMP inhibition assay, hCB1 CHO-K1; type: cell-based; design: host or cells: HEK293SL cells, transient PEI transfection; conditions: hCB1
Measured attribute: EC50 (µM)
Answers are plain numbers, in µM.

The reported EC50 of the compound Cc1cc(C(=O)N2CC3(CCC3)C2C2CCCO2)nn1-c1cccc(C(F)(F)F)c1 (stereo not shown) [‘3737] was 0.326
